Target: KRAS G12C/SOS/c-Raf complex (Homo sapiens, UniProt P01116, G12C)
Construct: Biotinylated AviTag-KRAS G12C (amino acid region 1-185, GDP)
Sequence (P01116 1-185 isoform P01116-2 G12C, one chain of several): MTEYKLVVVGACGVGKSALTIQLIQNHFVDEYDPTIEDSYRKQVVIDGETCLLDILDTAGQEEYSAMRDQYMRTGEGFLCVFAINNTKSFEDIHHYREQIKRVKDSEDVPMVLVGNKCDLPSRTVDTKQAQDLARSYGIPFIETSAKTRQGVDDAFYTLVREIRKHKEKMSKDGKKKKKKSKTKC
Experiment: KRAS G12C/SOS/c-Raf complex formation inhibitory action (TR-FRET)
Conditions: one hour at room temperature, read-out: IC50 (KRAS G12C/SOS/c-Raf complex formation inhibition)
pIC50: −log10 of the molar value.
Experimental readout: pIC50

Sample records with pIC50:
Fill in: KRAS G12C/SOS/c-Raf complex (Homo sapiens, UniProt P01116, G12C) pIC50 for "C=CC(=O)N1CC2(CCN(c3nc(OC4CCN(CCOC)CC4)nc4c(OCC(F)(F)F)c(-c5c(C)ccc6[nH]nc(Cl)c56)c(C=C)cc34)CC2)C1" = 7.25

Reported pIC50 (KRAS G12C/SOS/c-Raf complex (Homo sapiens, UniProt P01116, G12C)) for entry "C=CC(=O)N1CC2(CCN(c3nc(OC4CCN(C)CC4)nc4c(OCc5ccc(C)cc5)c(-c5c(C)ccc6[nH]ncc56)c(C=C)cc34)CC2)C1" is 7.24

Bench note, KRAS G12C/SOS/c-Raf complex (Homo sapiens, UniProt P01116, G12C): entry "C=CC(=O)N1CC2(CCN(c3nc(SC4CCN(C)CC4)nc4c(OCC(F)(F)F)c(-c5c(C)ccc6[nH]ncc56)c(C=C)cc34)CC2)C1" , its pIC50 = 7.23

I = C=CC(=O)N1CC2(CCN(c3nc(N4CC(N(C)C)C4)nc4c(OCC(F)(F)F)c(-c5c(C)ccc6[nH]ncc56)c(C=C)cc34)CC2)C1
II = C=CC(=O)N1CC2(CCN(c3nc(OC4CCN(C)CC4)nc4c(OCC(F)F)c(-c5c(C)ccc6[nH]ncc56)c(C5CC5)cc34)CC2)C1
# input Given I and II , report the one with the higher recorded pIC50. Identify your pick by its label.
# output II
(II: 7.54, I: 7.34)

These entries and their values trace back to patent US10774082B2.
